# credit: the supplement of paper PMC13207355

system: E57 (patient-derived glioblastoma stem cells of mesenchymal subtype); assay: phenotypic distance (Euclidean, principal components) from DMSO controls (arbitrary units); higher = stronger morphological change; details: 4.1 nM; exposure time: 72 h
Counter-ions that a name gives are not always drawn.
For each record, write down the corresponding phenotypic distance.

# get_value(readout='phenotypic distance', item= Cc1cc(CN2CCN(c3c(Br)cnc4nc(-c5ccc(N6CCN(C)CC6)cc5)[nH]c34)CC2)no1 )
0.499

# query: phenotypic distance of entry CN(C)C(=O)Oc1ccc[n+](C)c1 [Pyridostigmine iodide]
0.948

Please give the measured phenotypic distance for this compound: C[C@]12CC[C@H](O)C[C@H]1CC[C@@H]1[C@@H]2C[C@@H](O)[C@]2(C)[C@@H](C3=CC(=O)OC3)CC[C@]12O
0.552

What phenotypic distance value was documented for this compound, NC(=O)c1cccc2cn(-c3ccc([C@@H]4CCCNC4)cc3)nc12 ?
0.553

Which phenotypic distance is reported for this compound? CN(C)CCN(Cc1ccc(Cl)cc1)c1ccccn1 [Chloropyramine hydrochloride]
0.61

For the compound shown here, OC[C@H]1O[C@@H](Oc2ccc(O)cc2)[C@H](O)[C@@H](O)[C@@H]1O , give the reported phenotypic distance.
0.568

Item under review: C#C[C@]1(O)CC[C@H]2[C@@H]3CCc4cc(OC5CCCC5)ccc4[C@H]3CC[C@@]21C . Reported phenotypic distance?
1.71

# phenotypic distance lookup, item COc1cc2c(cc1O)CC[C@@H]1[C@@H]2CC[C@]2(C)[C@@H](O)CC[C@@H]12
0.835

====

system: E28 (patient-derived glioblastoma stem cells of classical subtype); experiment: phenotypic distance (Euclidean, principal components) from DMSO controls (arbitrary units); higher = stronger morphological change; conditions: 1000 nM; exposure time: 72 h
Counter-ions that a name gives are not always drawn.
QUANTITY: phenotypic distance
Just the number.

Need phenotypic distance, item Cc1ccc(C(=O)Nc2ccc(CN3CCN(C)CC3)c(C(F)(F)F)c2)cc1C#Cc1cnc2cccnn12
2.75

What value of phenotypic distance has been reported for the following compound? COc1cccc2c1C(=O)c1c(O)c3c(c(O)c1C2=O)C[C@@](O)(C(=O)CO)C[C@@H]3O[C@H]1C[C@H](N)[C@H](O)[C@H](C)O1 [Doxorubicin hydrochloride]
3.08

So what's the measured phenotypic distance for this one? COC(=O)Nc1nc2cc(C(=O)c3ccc(F)cc3)ccc2[nH]1
3.45

I'd like to know its phenotypic distance. The compound in question is CC[C@@H]1C(=O)N(C)c2cnc(Nc3ccc(C(=O)N[C@H]4CC[C@H](N5CCN(CC6CC6)CC5)CC4)cc3OC)nc2N1C(C)C
3.11

Bench note: what phenotypic distance did CC[C@@]1(O)C(=O)OCc2c1cc1n(c2=O)Cc2cc3cc(O)ccc3nc2-1 [Hydroxy Camptothecine] show?
3.32

Any idea what phenotypic distance was measured for COC(=O)Nc1nc2cc(C(=O)c3ccccc3)ccc2[nH]1 ?
4.27

====

tested on: E28; experiment: surviving fraction (nuclei count normalised to DMSO); higher = more cells surviving (less toxic); conditions: 333.3 nM; exposure time: 72 h
Where a name gives a salt, the structure may show the parent alone.
QUANTITY: surviving fraction
Lab note: record just the number, no unit beside it.

Given the entry CC1CNc2c(cccc2S(=O)(=O)N[C@@H](CCCNC(=N)N)C(=O)N2CC[C@@H](C)C[C@@H]2C(=O)O)C1 (stereo partly specified) [Argatroban] , report its measured surviving fraction.
1.01

surviving fraction for N=C(N)c1ccc(-c2ccc(-c3ccc(C(=N)N)cc3)o2)cc1 [Furamidine dihydrochloride] ?
0.901

Dear colleague, I am looking for the recorded surviving fraction of the following compound: OCCN1CCN(CCCN2c3ccccc3Sc3ccc(C(F)(F)F)cc32)CC1 [Fluphenazine dihydrochloride]
0.899

Please give the measured surviving fraction for this compound: CCOC(=O)OC(C)OC(=O)[C@@H]1N2C(=O)[C@@H](NC(=O)[C@H](N)c3ccccc3)[C@H]2SC1(C)C (stereo partly specified) [Bacampicillin hydrochloride]
0.997

Look at this compound and give its reported surviving fraction. CCn1c(-c2nonc2N)nc2cnc(Oc3cccc(NC(=O)c4ccc(OCCN5CCOCC5)cc4)c3)cc21
0.909

// surviving fraction lookup, key: COc1ccc(/C=C\c2cc(OC)c(OC)c(OC)c2)cc1OP(=O)(O)O [Fosbretabulin Disodium]
0.894

Recorded surviving fraction for CC(C)C[C@H]1C(=O)N2CCC[C@H]2[C@]2(O)O[C@](NC(=O)[C@@H]3C=C4c5cccc6[nH]c(Br)c(c56)C[C@H]4N(C)C3)(C(C)C)C(=O)N12 [Bromocryptine mesylate] , please?
0.978

Which surviving fraction reading was recorded for the compound O=C1CCc2cc(OCCCCc3nnnn3C3CCCCC3)ccc2N1 [Cilostazol] ?
1.01

Return reported surviving fraction; argument: Nc1ccn([C@H]2CC[C@@H](CO)O2)c(=O)n1 [Zalcitabine]
1.01

I have this compound here, COc1ccc2[nH]c([S+]([O-])Cc3ncc(C)c(OC)c3C)nc2c1 (stereo unspecified) [Omeprazole] , and I need its recorded surviving fraction.
0.973

What value of surviving fraction has been reported for the following compound? NC1CCN(c2nc3c(cc2F)c(=O)c(C(=O)O)cn3-c2ccc(F)cc2F)C1 (stereo unspecified) [Tosufloxacin hydrochloride]
0.975
